Origin of values: paper PMC8362273

TESTED_ON: PurA (adenylosuccinate synthase) (Escherichia coli, UniProt P0A7D4)
Sequence (P0A7D4 whole entry): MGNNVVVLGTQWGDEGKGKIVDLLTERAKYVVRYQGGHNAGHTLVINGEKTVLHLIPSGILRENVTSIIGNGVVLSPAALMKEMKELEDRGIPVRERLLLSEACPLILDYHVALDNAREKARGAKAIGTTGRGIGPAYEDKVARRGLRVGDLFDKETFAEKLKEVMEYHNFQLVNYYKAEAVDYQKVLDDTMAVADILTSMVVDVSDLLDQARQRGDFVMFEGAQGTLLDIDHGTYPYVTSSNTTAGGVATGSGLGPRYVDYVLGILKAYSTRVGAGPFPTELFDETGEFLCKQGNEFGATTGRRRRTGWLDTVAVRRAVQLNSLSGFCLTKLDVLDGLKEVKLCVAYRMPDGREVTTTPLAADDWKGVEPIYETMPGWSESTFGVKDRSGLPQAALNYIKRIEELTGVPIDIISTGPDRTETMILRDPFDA
pKd: −log10 of the molar value.

| MOLECULE | pKd |
| --- | --- |
| Nc1nc2c(ncn2[C@@H]2O[C@H](COP(=O)(O)OP(=O)(O)O)[C@@H](OP(=O)(O)OP(=O)(O)O)[C@H]2O)c(=O)[nH]1 [ppGpp, Guanosine tetraphosphate] | 4.21 |

----------
TESTED_ON: UniProt P0AEW6
Sequence (P0AEW6 whole entry): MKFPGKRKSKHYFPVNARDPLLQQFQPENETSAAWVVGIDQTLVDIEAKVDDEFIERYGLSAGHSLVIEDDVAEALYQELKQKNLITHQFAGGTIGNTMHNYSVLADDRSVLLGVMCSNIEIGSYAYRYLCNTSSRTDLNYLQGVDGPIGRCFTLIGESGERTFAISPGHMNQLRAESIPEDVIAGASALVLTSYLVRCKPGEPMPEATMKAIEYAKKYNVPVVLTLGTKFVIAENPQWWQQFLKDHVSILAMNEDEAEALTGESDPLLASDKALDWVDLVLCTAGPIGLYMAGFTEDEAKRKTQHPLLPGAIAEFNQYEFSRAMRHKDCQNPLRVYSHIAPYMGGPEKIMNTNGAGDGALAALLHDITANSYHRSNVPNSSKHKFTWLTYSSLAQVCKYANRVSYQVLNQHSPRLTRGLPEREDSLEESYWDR

| COMPOUND | Kd |
| --- | --- |
| Nc1nc2c(ncn2[C@@H]2O[C@H](COP(=O)(O)OP(=O)(O)O)[C@@H](OP(=O)(O)OP(=O)(O)O)[C@H]2O)c(=O)[nH]1 [ppGpp, Guanosine tetraphosphate] | 100 nM |
